# experimentalTarget: human MMP-14 (human, UniProt P50281 112-541, limits assumed)
# experiment: cell-based or functional assay
endpointLabel: IC50 of MMP-14 inhibition (MMP-14 at 2 pM), Fab (nM)
Please reply with the bare figure in nM and do not write the unit itself.

M0039-H08 Fab (Fab, V domains shown) VH: EVQLLESGGGLVQPGGSLRLSCAASGFTFSAYNMGWVRQAPGKGLEWVSSISSSGGYTGYADSVKGRFTISRDNSKNTLYLQMNSLRAEDTAVYYCARDLYRGFDYWGQGTLVTVSS VL: DIQMTQSPATLSVSPGERATLSCRASESVKNNLAWYQQKPGQAPRLLIYGVSTRAPGIPARFSGSGSGTDFTLTISSLEPEDFAVYYCQQRSNWPPVTFGQGTRLEIK ... 23
M0038-F01 Fab (Fab, V domains shown) VH: EVQLLESGGGLVQPGGSLRLSCAASGFTFSLYSMNWVRQAPGKGLEWVSSIYSSGGSTLYADSVKGRFTISRDNSKNTLYLQMNSLRAEDTAVYYCARGRAFDIWGQGTMVTVSS VL: DIQMTQSPSSLSAFVGDKVTITCRASQSVGTYLNWYQQKAGKAPELLIYATSNLRSGVPSRFSGSGSGTDFTLTINTLQPEDFATYYCQQSYSIPRFTFGPGTKVDIK ... 3.8
M0037-C09 Fab (Fab, V domains shown) VH: EVQLLESGGGLVQPGGSLRLSCAASGFTFSHYEMFWVRQAPGKGLEWVSSISPSGGQTHYADSVKGRFTISRDNSKNTLYLQMNSLRAEDTAVYYCATDRTYYDFWSGYGPLWYWGQGTLVTVSS VL: DIQMTQSPLSLPVTLGESASVSCRSSQSLLHENGHNYLDWYLQKPGQSPQLLIYLGSNRASGVPDRFSGSGSGTDFTLKISRVEAEDVGVYYCMQSLKTPPTFGPGTKVEIK ... 11.5
M0043-G02 Fab (Fab, V domains shown) VH: EVQLLESGGGLVQPGGSLRLSCAASGFTFSWYPMFWVRQAPGKGLEWVSGIYSSGGPTDYADSVKGRFTISRDNSKNTLYLQMNSLRAEDTAVYYCAKDTLGRYYDFWSGYSYGMDVWGQGTTVTVSS VL: DIQMTQSPGTLSLSPGERATLSCRASQSVSSSYLAWYQQKPGQAPRLLIYGASSRATGIPDRFSGSGSGTDFTLTISRLEPEDFAVYYCQSGVTFGGGTKVEIK ... 9.3
M0040-A06 Fab (Fab, V domains shown) VH: EVQLLESGGGLVQPGGSLRLSCAASGFTFSYYGMYWVRQAPGKGLEWVSSISSSGGYTDYADSVKGRFTISRDNSKNTLYLQMNSLRAEDTAVYYCARRIKYYDIEGEGAFDIWGQGTMVTVSS VL: DIVMTQTPPSLPVNPGEPASISCRSSQSLLHRNGYNYLDWYLQKPGQSPQLLIHLGSYRASGVPDRFSGSGSGTDFTLKISRVEAEDVGVYYCMQPLQTPFTFGPGTKVDIK ... 8.6
M0038-E06 Fab (Fab, V domains shown) VH: EVQLLESGGGLVQPGGSLRLSCAASGFTFSPYVMHWVRQAPGKGLEWVSSISPSGGWTYYADSVKGRFTISRDNSKNTLYLQMNSLRAEDMAVYYCARGTGAYGMDVWGQGTTVTVSS VL: DIQMTQSPGTLSLSPGDRATLSCGASQLVVSNYIAWYQQKPGQAPRLLMYAGSIRATGIPDRFSGSGSGTDFTLTISRLEPEDFAIYYCQQRSNWPWTFGQGTKVEIK ... 16.6
M0038-F08 Fab (Fab, V domains shown) VH: EVQLLESGGGLVQPGGSLRLSCAASGFTFSRYKMWWVRQAPGKGLEWVSGIRPSGGLTRYADSVKGRFTISRDNSKNTLYLQMNSLRAEDTAVYYCARRGDYVGGFDYWGQGTLVTVSS VL: DIQMTQSPGTLSLSPGERATLSCRASQSVSSSYLAWYQQKPGQAPRLLIYGASSRATGIPDRFSGSGSGTDFTLTISRLEPEDFAVYYCQHYGGSQAFGGGTKVEIK ... 31.1
M0031-F01 Fab (Fab, V domains shown) VH: EVQLLESGGGLVQPGGSLRLSCAASGFTFSTYEMHWVRQAPGKGLEWVSSIYSSGGWTGYADSVKGRFTISRDNSKNTLYLQMNSLRAEDTAVYYCARSQQYYDFSSRYYGMDVWGQGTTVTVSS VL: QSELTQPPSVSGTPGQRVTISCSGTSANIGRNAVHWYQQLPGTAPKLLIHSNNRRPSGVPDRFSGSKSGTSASLAISGLQSEDEADYYCAAWENSLNAFYVFGTGTKVTVL ... 25.3

Please examine the following record next.
Please give the measured IC50 of MMP-14 inhibition (MMP-14 at 2 pM), Fab for this binder: M0033-H07 Fab (Fab, V domains shown) VH: EVQLLESGGGLVQPGGSLRLSCAASGFTFSVYGMVWVRQAPGKGLEWVSVISSSGGSTWYADSVKGRFTISRDNSKNTLYLQMNSLRAEDTALYYCARPFSRRYGVFDYWGQGTLVTVSS VL: DIQMTQSPSSLSASVGDRVTITCRASQGIRNFLAWYQQKPGKVPKLLVFGASALQSGVPSRFSGSGSGTDFTLTISGLQPEDVATYYCQKYNGVPLTFGGGTKVEIK 11.5
